src = patent US9303033B2

Test system: BxPC3 human pancreatic adenocarcinoma cells
Experiment: Cell proliferation assay with Alamar Blue (AB), BxPC3
Assay type: cell-based
Conditions: Homo sapiens, BXPC-3, read-out: AB: BxPC3
Procedure: A representative cell-proliferation assay protocol using Alamar Blue dye (stored at 4° C., use 20 ul per well) is described hereafter. a. Split and trypsinize cells. b. Count cells using hemocytometer. c. Plate 4,000-5,000 cells per well in 100 μl of medium and seed into a 96-well plate according to the following plate layout. Add cell culture medium only to wells B10 to B12. d. […] h. Record fluorescence at an excitation wavelength of 544 nm and emission wavelength of 590 nm using a microplate reader. […]
measuredProperty: IC50 (µM)
A number alone suffices; assume µM.

Answered examples (5):
| compound | uom | readoutValue |
| --- | --- | --- |
| O=C1NC(=S)S/C1=C\c1cnn2c(NC3CC3)cc(-c3ccnc(F)c3)nc12 | µM | 22.7 |
| NC(=O)c1cccc(-c2cc(NC3CC3)n3ncc(/C=C4\NC(=O)NC4=O)c3n2)c1 | µM | 3.68 |
| Cc1cc(COc2cccc(-c3cc(NC4CC4)n4ncc(/C=C5\NC(=O)NC5=O)c4n3)c2)no1 | µM | 1.19 |
| CC(C)(C)OC(=O)N1CCN(C(=O)c2cccc(Nc3cc(Nc4cccc(Cl)c4)nc4c(/C=C5\NC(=O)NC5=O)cnn34)c2)CC1 | µM | 3.01 |
| Nc1cc(Nc2cccc(Cl)c2)nc2c(/C=C3\NC(=O)NC3=O)cnn12 | µM | 16.6 |

## Task Which IC50 is reported with BxPC3 human pancreatic adenocarcinoma cells for this entry: O=C1NC(=O)/C(=C/c2cnn3c(NC4CC4)cc(Nc4ccc(Cl)cc4)nc23)N1 ?
## Result 15.1

## Task Same again, this time with C=CCOc1cccc(-c2cc(NC3CC3)n3ncc(/C=C4\NC(=O)NC4=O)c3n2)c1
## Result 11.8

## Task Same again, this time with CC(O)c1cccc(-c2cc(NC3CC3)n3ncc(/C=C4\NC(=O)NC4=O)c3n2)c1 (centres unmarked)
## Result 4.61
